Entry source: the supplement of paper PMC6555819

Test system: RARg:RXRa (NR concentration 270 nM, RXRa partner concentration 90 nM)
Test: PBM binding z-score (relative to random genomic background probes); higher = stronger binding; sequences stand for … in GC…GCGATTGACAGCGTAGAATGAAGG
Classify by PBM binding z-score. Ranges: group A: < 0.7; group B: ≥ 0.7 and < 4; group C: ≥ 4

Use these answered entries as a reference point.
{"Sequence": "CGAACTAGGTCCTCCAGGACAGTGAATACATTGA", "Experimental System": "RARg:RXRa (NR concentration 270 nM, RXRa partner concentration 90 nM)", "Class Assignment": "group A"}
{"Sequence": "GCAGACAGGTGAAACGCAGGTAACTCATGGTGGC", "Experimental System": "RARg:RXRa (NR concentration 270 nM, RXRa partner concentration 90 nM)", "Class Assignment": "group B"}
{"Sequence": "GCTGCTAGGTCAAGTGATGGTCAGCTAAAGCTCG", "Experimental System": "RARg:RXRa (NR concentration 270 nM, RXRa partner concentration 90 nM)", "Class Assignment": "group C"}

# bin lookup: classify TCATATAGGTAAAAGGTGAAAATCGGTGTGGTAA by its PBM binding z-score group B

Please indicate the class for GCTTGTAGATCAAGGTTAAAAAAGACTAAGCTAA based on its PBM binding z-score. group A

Band for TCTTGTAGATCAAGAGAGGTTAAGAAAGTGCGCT ? group A

Which of the defined bands does the recorded PBM binding z-score of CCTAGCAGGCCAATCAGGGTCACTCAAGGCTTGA sit within? group B

Using the reported PBM binding z-score, which band applies to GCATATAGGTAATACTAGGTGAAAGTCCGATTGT ? group A

Categorize the following entry: CCAACTGGGGCAAGGTTACCATAACGCACAGCCA group B

Lab note: which band did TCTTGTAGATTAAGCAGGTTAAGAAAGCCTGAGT land in? group A

Class? Entry: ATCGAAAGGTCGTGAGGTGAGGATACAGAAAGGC group C

Band of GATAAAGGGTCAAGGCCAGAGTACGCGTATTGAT ? group C

Note: place this sequence into its band. Item: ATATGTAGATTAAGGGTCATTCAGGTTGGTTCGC group B

Each sequence maps to one class by PBM binding z-score. Which class for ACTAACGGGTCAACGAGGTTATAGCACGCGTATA ? group C

Record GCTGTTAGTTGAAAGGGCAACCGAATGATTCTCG — which class? group B

----------
System: VDR homodimer (NR concentration 270 nM)
Assay: PBM binding z-score (relative to random genomic background probes); higher = stronger binding; sequences stand for … in GC…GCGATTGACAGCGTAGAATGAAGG
Assay Metric: PBM binding z-score

Answered cases to consult:
{"Sequence": "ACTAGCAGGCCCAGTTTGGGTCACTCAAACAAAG", "PBM binding z-score": -0.243}
{"Sequence": "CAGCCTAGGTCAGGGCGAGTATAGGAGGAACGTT", "PBM binding z-score": -0.499}
{"Sequence": "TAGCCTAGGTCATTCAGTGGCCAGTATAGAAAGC", "PBM binding z-score": 1.24}
{"Sequence": "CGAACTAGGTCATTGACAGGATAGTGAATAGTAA", "PBM binding z-score": 0.957}

Let's switch to this sequence now.
Note to self: PBM binding z-score of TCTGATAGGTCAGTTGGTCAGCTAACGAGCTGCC with VDR homodimer (NR concentration 270 nM) was -0.342
